Test system: HeLa
assay-info: Cytotoxicity against Homo sapiens (human) HeLa cells assessed as cell viability at 100 uM by MTT assay
Type: functional
assay-conditions: read-out: Activity
For each of the compounds below, state its viability at 100 µM.
Give bare numbers, in %.

structure-string: O=c1c(Cc2ccco2)cc(-c2ccccc2)nn1CCCN1CCOCC1
viability at 100 µM, %: 64.6
//
structure-string: O=c1c(Cc2cccs2)cc(-c2ccccc2)nn1CCCN1CCOCC1
viability at 100 µM, %: 67.1
//
structure-string: O=c1c(Cc2ccco2)cc(-c2ccccc2)nn1CCCN1CCN(Cc2ccccc2)CC1
viability at 100 µM, %: 61.7
//
structure-string: O=c1c(Cc2ccco2)cc(-c2ccccc2)nn1CCCN1CCN(c2ccccc2)CC1
viability at 100 µM, %: 61.3

Provide only the value of recorded viability at 100 µM for O=c1c(Cc2ccccn2)cc(-c2ccccc2)nn1CCCN1CCN(Cc2ccccc2)CC1
63.8

# credit: ChEMBL document CHEMBL3044698
